# experimental.system: T1, cTnI quality control product recombinant protein (human, UniProt P19429 1-210, limits assumed)
# T1 construct: the assay paragraphs only say cTnI; also called cardiac troponin I; cTnI antigen
# T1 sequence (P19429 whole entry): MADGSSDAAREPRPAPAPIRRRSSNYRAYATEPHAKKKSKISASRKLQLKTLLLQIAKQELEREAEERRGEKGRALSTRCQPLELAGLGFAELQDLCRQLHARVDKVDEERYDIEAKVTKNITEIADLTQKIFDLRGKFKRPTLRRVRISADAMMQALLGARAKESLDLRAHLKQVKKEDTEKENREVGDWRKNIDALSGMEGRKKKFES
# experimental.details: AMC biosensor, antibody on sensor
// returns Not satisfied unless Kd is strictly below 8 nM, in which case Satisfied

binder	qualitative.label
Mutation 1-12 (antibody, V domains shown) VH: QVQLQQSGTELAKPGASVKFSCKASGYTFSTYWMYWIKQRPGQGLEWIGYLNPSTGHTDYNQRFKDKATLTADKSSSTAYMQLNSLTSEDSAVYYCARRYFGPFGMDYWGQGTSVTVSS VL: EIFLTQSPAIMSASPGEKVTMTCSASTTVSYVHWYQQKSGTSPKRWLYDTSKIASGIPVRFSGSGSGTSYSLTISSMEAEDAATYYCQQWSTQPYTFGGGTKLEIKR	Satisfied
Mutation 1-19 (antibody, V domains shown) VH: QVQLQQSGTELAKPGASVKFSCKASGYTFTSYWMYWIKQRPGQGLEWIGYLNPSTGHTDYNQKFKDKATLTADKSSSTAYMQLNSLTSEDSAVYYCARRYYGPFGMDYWGQGTSVTVSS VL: EIFLTQSPAIMSASPGEKVTMTCSASSSVSYVHWYQQKSGTSPKRWIYDTSKLASGIPVRFSGSGSGTSYSLTISSMEAEDAATYYCQQWSSQPYTFGGGTKLEIKR	Satisfied
Mutation 1-42 (antibody, V domains shown) VH: QVQLQQSGTELAKPGASVKFSCKASGYTFTSYWMYWIKQRPGQGLEWIGYINPSSGHTDYNQKFKDKATLTADKSSSTAYMQLNSLTSEDSAVYYCARRYWGPFGMDYWGQGTSVTVSS VL: EIFLTQSPAIMSASPGEKVTMTCSASSTVSYVHWYQQKSGTSPKRWLYDTSKLASGIPVRFSGSGSGTSYSLTISSMEAEDAATYYCQQWSSNPYTFGGGTKLEIKR	Satisfied
Mutation 1-1 (antibody, V domains shown) VH: QVQLQQSGTELAKPGASVKFSCKASGYTFSTYWMYWIKQRPGQGLEWIGYINPSTGHTDYNQKFKDKATLTADKSSSTAYMQLNSLTSEDSAVYYCARRYYGPFGMDYWGQGTSVTVSS VL: EIFLTQSPAIMSASPGEKVTMTCSASSSVSYVHWYQQKSGTSPKRWIYDTSKIASGIPVRFSGSGSGTSYSLTISSMEAEDAATYYCQQWSTNPYTFGGGTKLEIKR	Satisfied
WT 1-7 (antibody, V domains shown) VH: QVQLQQSGTELAKPGASVKFSCKASDYTFTTYWMYWIKQRPGQGLEWIGYLNPSTGHTEYNQKFKDKATLTADKSSSTAYMQLNSLTSEDSAVYYCARRYYGPFAMDYWGQGTSVTVSS VL: EIFLTQSPAIMSASPGEKVTMTCSASTSVSYAHWYQQKSGTSPKRWIYDSSKLASGIPVRFSGSGSGTSYSLTISSMEAEDAATYYCQNWSTNPYTFGGGTKLEIKR	Not satisfied
